- Test system: biotinyl-Met-oxazolone
- Protocol summary: self-aminoacylation, catalytic enhancement (BMO) (fold over background); higher = more active; k-Seq, kA / k0A0; sequences stand for … in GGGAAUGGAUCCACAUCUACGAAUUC…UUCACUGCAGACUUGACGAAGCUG
This sample holds only a part of the variants without activity.
Below, each entry is listed alongside its reported self-aminoacylation.

sequence_input="AUUAACCUGGUCCUCGAGUGA [Fam2.1 aminoacylation ribozyme variant]" result=3.92

Entry CCACACUUAAAGCAAUAGGUC [Fam1B.1 aminoacylation ribozyme variant] , self-aminoacylation reported as 0.509

Entry CUAAUUCAAACAAUCGGUCUU [Fam1A.1 aminoacylation ribozyme variant] , self-aminoacylation reported as 0.695

Entry CCCCACUUCACGCAAUCGGUC [Fam1B.1 aminoacylation ribozyme variant] , self-aminoacylation reported as 2.31

Entry AAGUUUGUUAAUACUCGCAAG [Fam3.1 aminoacylation ribozyme variant] , self-aminoacylation reported as 0.692

Entry GUACUUCAAAAAAUCGGUCUG [Fam1A.1 aminoacylation ribozyme variant] , self-aminoacylation reported as 1.16

Entry ACUCACCUAGGUCAUUGGGUG [Fam2.2 aminoacylation ribozyme variant] , self-aminoacylation reported as 2.35

Entry AUUCACCUAUGUCAUUGGGUG [Fam2.2 aminoacylation ribozyme variant] , self-aminoacylation reported as 2.03

###

Below, each entry is listed alongside its reported self-aminoacylation.
- System: biotinyl-Ile-oxazolone
- Protocol summary: self-aminoacylation, catalytic enhancement (BIO) (fold over background); higher = more active; k-Seq, kA / k0A0; sequences stand for … in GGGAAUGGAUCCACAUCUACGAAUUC…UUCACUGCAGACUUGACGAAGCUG
This sample holds only a part of the variants without activity.
Please give the numeric answer without any surrounding text.

Before answering, review these 4 worked examples.
sequence_input="AAGUUUGCUAAUAGACGCGAG [Fam3.1 aminoacylation ribozyme variant]" quantity_name=self-aminoacylation number=0.793
sequence_input="CUACUUCUAACAAUCGGUCUC [Fam1A.1 aminoacylation ribozyme variant]" quantity_name=self-aminoacylation number=0.686
sequence_input="AUUACCCGUGUCAUCGAGUGA [Fam2.1 aminoacylation ribozyme variant]" quantity_name=self-aminoacylation number=4.4
sequence_input="AUUCACCUAGGUCUUCGGUUG [Fam2.2 aminoacylation ribozyme variant]" quantity_name=self-aminoacylation number=1.55

Lab note: next sequence to report on.
Entry AUUACCCUUGCCAUCGAGUGA [Fam2.1 aminoacylation ribozyme variant] , self-aminoacylation reported as 3.09

###

- Tested on: biotinyl-Trp-oxazolone
- Protocol summary: self-aminoacylation, catalytic enhancement (BWO) (fold over background); higher = more active; k-Seq, kA / k0A0; sequences stand for … in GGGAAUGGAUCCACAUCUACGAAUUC…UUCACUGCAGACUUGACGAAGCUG
Variants at the floor of the assay were thinned out.
Quantity name: self-aminoacylation
Please give the numeric answer without any surrounding text.

Before answering, review these 8 worked examples.
sequence_input="CUACUUCAAACAAGCGGCCUG [Fam1A.1 aminoacylation ribozyme variant]" experimental_system=biotinyl-Trp-oxazolone number=1.68
sequence_input="AAGUUUGCUGAUACUCGCAAG [Fam3.1 aminoacylation ribozyme variant]" experimental_system=biotinyl-Trp-oxazolone number=1.07
sequence_input="UAGUUUGCUAAUAGUCGCGAG [Fam3.1 aminoacylation ribozyme variant]" experimental_system=biotinyl-Trp-oxazolone number=2.02
sequence_input="AUUCACCUAGGUUAUUGGGUG [Fam2.2 aminoacylation ribozyme variant]" experimental_system=biotinyl-Trp-oxazolone number=6.1
sequence_input="AUUCUCCAAGGUCAUCGGGUG [Fam2.2 aminoacylation ribozyme variant]" experimental_system=biotinyl-Trp-oxazolone number=10.7
sequence_input="CUACUUCAUACAAACGGUCUG [Fam1A.1 aminoacylation ribozyme variant]" experimental_system=biotinyl-Trp-oxazolone number=0.536
sequence_input="AUUACCAUGGUCAUCGAGGGA [Fam2.1 aminoacylation ribozyme variant]" experimental_system=biotinyl-Trp-oxazolone number=2.58
sequence_input="CUACACUUCAAACAAUCGGUC [Fam1B.1 aminoacylation ribozyme variant]" experimental_system=biotinyl-Trp-oxazolone number=39

Simply: AAUCACCUAGGUCAUCCGGUG [Fam2.2 aminoacylation ribozyme variant] , biotinyl-Trp-oxazolone, self-aminoacylation = 6.07

Simply: GAGUUUGCUAGUAGUCGCAAG [Fam3.1 aminoacylation ribozyme variant] , biotinyl-Trp-oxazolone, self-aminoacylation = 0.876

Simply: AUUCCCCUAGGGCAUCGGGUG [Fam2.2 aminoacylation ribozyme variant] , biotinyl-Trp-oxazolone, self-aminoacylation = 10.4

Simply: CUACUUCAACCAAUCGGUUUG [Fam1A.1 aminoacylation ribozyme variant] , biotinyl-Trp-oxazolone, self-aminoacylation = 10.8

Simply: GUUCUUCAAACAAUCGGUCUG [Fam1A.1 aminoacylation ribozyme variant] , biotinyl-Trp-oxazolone, self-aminoacylation = 2.39

Simply: UUACUUCAAACAAUCGAUCUG [Fam1A.1 aminoacylation ribozyme variant] , biotinyl-Trp-oxazolone, self-aminoacylation = 0.866

Simply: CGACACUUCAAGCACUCGGUC [Fam1B.1 aminoacylation ribozyme variant] , biotinyl-Trp-oxazolone, self-aminoacylation = 2

Simply: AAGUUAGCUAAUAGUCGCAAA [Fam3.1 aminoacylation ribozyme variant] , biotinyl-Trp-oxazolone, self-aminoacylation = 1.06

Simply: AUUUCCCUUGUCAUCGAGUGA [Fam2.1 aminoacylation ribozyme variant] , biotinyl-Trp-oxazolone, self-aminoacylation = 8.99

Simply: CCACACUUCAAACAAACGGUC [Fam1B.1 aminoacylation ribozyme variant] , biotinyl-Trp-oxazolone, self-aminoacylation = 0.471

Simply: CUACUUCAAACAACCGGUCUG [Fam1A.1 aminoacylation ribozyme variant] , biotinyl-Trp-oxazolone, self-aminoacylation = 0.844

Simply: CCACACUUCAAGCAACCGGAC [Fam1B.1 aminoacylation ribozyme variant] , biotinyl-Trp-oxazolone, self-aminoacylation = 0.606

Simply: CUAGUUCAAACAAUCGGUCUU [Fam1A.1 aminoacylation ribozyme variant] , biotinyl-Trp-oxazolone, self-aminoacylation = 3.27

Simply: AUUACGCUGGUCGUCGAGUGA [Fam2.1 aminoacylation ribozyme variant] , biotinyl-Trp-oxazolone, self-aminoacylation = 1.37

###

- System: biotinyl-Val-oxazolone
- Protocol summary: self-aminoacylation, catalytic enhancement (BVO) (fold over background); higher = more active; k-Seq, kA / k0A0; sequences stand for … in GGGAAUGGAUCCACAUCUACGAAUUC…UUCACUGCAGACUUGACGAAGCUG
Variants at the floor of the assay were thinned out.
Threshold check on self-aminoacylation: at or above 3 gives YES, strictly below gives NO.

sequence_input="UUUACCCUGCUCAUCGAGUGA [Fam2.1 aminoacylation ribozyme variant]" qualitative_label=NO

Incoming: Item CUACUUCACUCAAUCGGUCUG [Fam1A.1 aminoacylation ribozyme variant] with self-aminoacylation of 3 or above?
Outgoing: NO

Incoming: Item AUUACCCUGCUCAUCCAGUGA [Fam2.1 aminoacylation ribozyme variant] with self-aminoacylation of 3 or above?
Outgoing: YES

Incoming: Item AUUCACCUCGGUCUUCGGGUG [Fam2.2 aminoacylation ribozyme variant] with self-aminoacylation of 3 or above?
Outgoing: YES

Incoming: Item AUUACCCUGGUCUUCGAGUGA [Fam2.1 aminoacylation ribozyme variant] with self-aminoacylation of 3 or above?
Outgoing: YES

Incoming: Item CUACUUUAAACAGUCGGUCUG [Fam1A.1 aminoacylation ribozyme variant] with self-aminoacylation of 3 or above?
Outgoing: NO

Incoming: Item ACACACUGCAAGCAAUCGGUC [Fam1B.1 aminoacylation ribozyme variant] with self-aminoacylation of 3 or above?
Outgoing: NO

Incoming: Item AUUACCCUGGUCAGCAAGUGA [Fam2.1 aminoacylation ribozyme variant] with self-aminoacylation of 3 or above?
Outgoing: NO

Incoming: Item CUACUUCAAACAAUCCGUCCG [Fam1A.1 aminoacylation ribozyme variant] with self-aminoacylation of 3 or above?
Outgoing: NO

###

- Tested on: biotinyl-Leu-oxazolone
- Protocol summary: self-aminoacylation, catalytic enhancement (BLO) (fold over background); higher = more active; k-Seq, kA / k0A0; sequences stand for … in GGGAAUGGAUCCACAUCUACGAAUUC…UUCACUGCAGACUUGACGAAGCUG
Fewer inactive variants are shown than the library holds.
Threshold check on self-aminoacylation: at or above 3 gives true (1), strictly below gives false (0).

Completed entries (count: 3):
sequence_input="AUUACACUUGUCAUCGAGUGA [Fam2.1 aminoacylation ribozyme variant]" qualitative_label="true (1)"
sequence_input="AAGUUUGAUAUUAGUCGCAAG [Fam3.1 aminoacylation ribozyme variant]" qualitative_label="false (0)"
sequence_input="AUUAGCCUGGUCAUGGAGUGA [Fam2.1 aminoacylation ribozyme variant]" qualitative_label="true (1)"

Incoming: Item CCACACCUCAAGCAAUCGCUC [Fam1B.1 aminoacylation ribozyme variant] with self-aminoacylation of 3 or above?
Outgoing: false (0)

Incoming: Item AUUACGCUGGUCAUCGAUUGA [Fam2.1 aminoacylation ribozyme variant] with self-aminoacylation of 3 or above?
Outgoing: false (0)
